Reference source: patent US20210403435A1

- Tested on: Lolium perenne (LOLPE)
- ASSAY_SUMMARY: Post-emergence efficacy, glasshouse, evaluated after 13 days
- Assay type: in vivo
- CONDITION_LABEL: Lolium perenne, 312 h; post-emergence application, 500 g/Ha, evaluated after 13 days; read-out: Control of weed species LOLPE (100=total damage to plant; 0=no damage to plant)
Binarize pest or weed control at 500 g/ha at 60%; below is class 1, at or above is class 0.

[[record]]
compound = "CC(C)CNC(=O)c1cc[n+](CCS(=O)(=O)[O-])nc1 [Compound A37]"
group = "class 1"

[[record]]
compound = "CCNC(=O)c1cc[n+](C(C)CC(=O)O)nc1 (stereo not shown) [Compound A61]"
group = "class 0"

[[record]]
compound = "O=C(O)CC[n+]1ccc(C(=O)NC2CSC2)cn1 [Compound A69]"
group = "class 1"

[[record]]
compound = "O=C(O)CC[n+]1ccc(C(=O)NCCc2nccs2)cn1 [Compound A143]"
group = "class 1"

[[record]]
compound = "C#CC(C)NC(=O)c1cc[n+](CCC(=O)O)nc1 (stereo not shown) [Compound A78]"
group = "class 0"

[[record]]
compound = "O=C(O)CC[n+]1ccc(C(=O)N2CCOCC2)cn1 [Compound A29]"
group = "class 1"

[[record]]
compound = "O=C(O)CC[n+]1ccc(C(=O)Nc2ccccc2)cn1 [Compound A33]"
group = "class 0"

[[record]]
compound = "CC(C)(C)NC(=O)c1cc[n+](CCC(=O)O)nc1 [Compound A15]"
group = "class 0"


====

- Tested on: Lolium perenne (LOLPE)
- ASSAY_SUMMARY: Post-emergence efficacy, glasshouse, evaluated after 13 days
- Type: in vivo
- CONDITION_LABEL: Lolium perenne, 312 h; post-emergence application, 500 g/Ha, evaluated after 13 days; read-out: Control of weed species LOLPE (100=total damage to plant; 0=no damage to plant)
- Protocol: Seeds of a variety of test species were sown in standard soil in pots. […] The test plants were then grown in a glasshouse under controlled conditions (at 24/16° C., day/night; 14 hours light; 65% humidity) and watered twice daily. After 13 days the test was evaluated (100=total damage to plant; 0=no damage to plant). […]
Entries annotated with measured pest or weed control at 500 g/ha
ENDPOINT_LABEL: pest or weed control at 500 g/ha (%)

[[record]]
compound = "CN(C)C(=O)c1cc[n+](CCC(=O)O)nc1 [Compound A10]"
readout_unit = "%"
test_value = 10

[[record]]
compound = "O=C(O)CC[n+]1ccc(C(=O)N2CCS(=O)(=O)CC2)cn1 [Compound A108]"
readout_unit = "%"
test_value = 40

[[record]]
compound = "CC1(NC(=O)c2cc[n+](CCC(=O)O)nc2)CC1 [Compound A92]"
readout_unit = "%"
test_value = 90

[[record]]
compound = "CCCNC(=O)c1cc[n+](CCS(=O)(=O)[O-])nc1 [Compound A51]"
readout_unit = "%"
test_value = 20

[[record]]
compound = "CS(=O)(=O)CCNC(=O)c1cc[n+](CCC(=O)O)nc1 [Compound A104]"
readout_unit = "%"
test_value = 70


====

# Lookup of reported pest or weed control at 500 g/ha keyed by entry
- Tested on: Setaria faberi (SETFA)
- ASSAY_SUMMARY: Post-emergence efficacy, glasshouse, evaluated after 13 days
- Assay type: in vivo
- CONDITION_LABEL: Setaria faberi, 312 h; post-emergence application, 500 g/Ha, evaluated after 13 days; read-out: Control of weed species SETFA (100=total damage to plant; 0=no damage to plant)
Where a name gives a salt, the structure may show the parent alone.
ENDPOINT_LABEL: pest or weed control at 500 g/ha (%)

[[record]]
compound = "O=C(O)CC[n+]1ccc(C(=O)NCc2ccc(C(F)(F)F)cc2)cn1"
endpoint_label = "pest or weed control at 500 g/ha"
test_value = 30

[[record]]
compound = "CN(C(=O)c1cc[n+](CCC(=O)O)nc1)c1ccccc1 [Compound A38, trifluoroacetate]"
endpoint_label = "pest or weed control at 500 g/ha"
test_value = 90

[[record]]
compound = "CCC1(NC(=O)c2cc[n+](CCC(=O)O)nc2)CC1"
endpoint_label = "pest or weed control at 500 g/ha"
test_value = 60

[[record]]
compound = "CCNC(=O)c1cc[n+](CCNS(=O)(=O)[O-])nc1"
endpoint_label = "pest or weed control at 500 g/ha"
test_value = 100

[[record]]
compound = "Cn1nccc1NC(=O)c1cc[n+](CCC(=O)O)nc1"
endpoint_label = "pest or weed control at 500 g/ha"
test_value = 40

[[record]]
compound = "CCNC(=O)c1cc[n+](CC(C)C(=O)O)nc1 (stereo not drawn)"
endpoint_label = "pest or weed control at 500 g/ha"
test_value = 100

[[record]]
compound = "O=C(NCCO)c1cc[n+](CCS(=O)(=O)[O-])nc1"
endpoint_label = "pest or weed control at 500 g/ha"
test_value = 90

[[record]]
compound = "CC(C#N)NC(=O)c1cc[n+](CCC(=O)O)nc1 (stereo not drawn)"
endpoint_label = "pest or weed control at 500 g/ha"
test_value = 90

[[record]]
compound = "CC(=O)NNC(=O)c1cc[n+](CCC(=O)O)nc1"
endpoint_label = "pest or weed control at 500 g/ha"
test_value = 60

